Target: ACVR2B (human) (UniProt Q13705)
Sequence (Q13705 whole entry, looked up): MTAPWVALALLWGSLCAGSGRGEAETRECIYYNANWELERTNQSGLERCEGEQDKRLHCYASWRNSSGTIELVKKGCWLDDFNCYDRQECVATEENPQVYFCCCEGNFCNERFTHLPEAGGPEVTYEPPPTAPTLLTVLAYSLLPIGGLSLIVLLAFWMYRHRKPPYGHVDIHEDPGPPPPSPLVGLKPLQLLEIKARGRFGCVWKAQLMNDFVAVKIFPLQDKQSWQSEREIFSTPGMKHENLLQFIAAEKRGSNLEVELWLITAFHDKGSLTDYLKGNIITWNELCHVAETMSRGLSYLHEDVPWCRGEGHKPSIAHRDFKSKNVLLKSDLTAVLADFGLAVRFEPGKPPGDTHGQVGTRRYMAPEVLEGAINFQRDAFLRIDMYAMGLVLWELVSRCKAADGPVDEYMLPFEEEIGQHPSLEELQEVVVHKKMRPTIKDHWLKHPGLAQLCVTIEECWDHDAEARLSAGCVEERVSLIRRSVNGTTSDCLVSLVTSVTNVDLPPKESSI
Assay: KINOMEscan competition binding
Conditions: compound 10.0 µM
MEASUREMENT NAME: kinase still bound, per cent of control (%)

* O=C1NC(=O)/C(=C/c2ccc3nccc(-c4ccncc4)c3c2)S1 | 20
* N#CCNC(=O)c1ccc(-c2ccnc(Nc3ccc(N4CCOCC4)cc3)n2)cc1 | 54
* CNC(=O)c1cc(Oc2ccc(NC(=O)Nc3ccc(Cl)c(C(F)(F)F)c3)cc2)ccn1 | 75
* CS(=O)(=O)N1CCN(Cc2cc3nc(-c4cccc5[nH]ncc45)nc(N4CCOCC4)c3s2)CC1 | 100

====

Each entry below lists one item and its recorded kinase still bound, per cent of control value.
Target: EPHA5 (human) (UniProt P54756)
Sequence (P54756 whole entry, looked up): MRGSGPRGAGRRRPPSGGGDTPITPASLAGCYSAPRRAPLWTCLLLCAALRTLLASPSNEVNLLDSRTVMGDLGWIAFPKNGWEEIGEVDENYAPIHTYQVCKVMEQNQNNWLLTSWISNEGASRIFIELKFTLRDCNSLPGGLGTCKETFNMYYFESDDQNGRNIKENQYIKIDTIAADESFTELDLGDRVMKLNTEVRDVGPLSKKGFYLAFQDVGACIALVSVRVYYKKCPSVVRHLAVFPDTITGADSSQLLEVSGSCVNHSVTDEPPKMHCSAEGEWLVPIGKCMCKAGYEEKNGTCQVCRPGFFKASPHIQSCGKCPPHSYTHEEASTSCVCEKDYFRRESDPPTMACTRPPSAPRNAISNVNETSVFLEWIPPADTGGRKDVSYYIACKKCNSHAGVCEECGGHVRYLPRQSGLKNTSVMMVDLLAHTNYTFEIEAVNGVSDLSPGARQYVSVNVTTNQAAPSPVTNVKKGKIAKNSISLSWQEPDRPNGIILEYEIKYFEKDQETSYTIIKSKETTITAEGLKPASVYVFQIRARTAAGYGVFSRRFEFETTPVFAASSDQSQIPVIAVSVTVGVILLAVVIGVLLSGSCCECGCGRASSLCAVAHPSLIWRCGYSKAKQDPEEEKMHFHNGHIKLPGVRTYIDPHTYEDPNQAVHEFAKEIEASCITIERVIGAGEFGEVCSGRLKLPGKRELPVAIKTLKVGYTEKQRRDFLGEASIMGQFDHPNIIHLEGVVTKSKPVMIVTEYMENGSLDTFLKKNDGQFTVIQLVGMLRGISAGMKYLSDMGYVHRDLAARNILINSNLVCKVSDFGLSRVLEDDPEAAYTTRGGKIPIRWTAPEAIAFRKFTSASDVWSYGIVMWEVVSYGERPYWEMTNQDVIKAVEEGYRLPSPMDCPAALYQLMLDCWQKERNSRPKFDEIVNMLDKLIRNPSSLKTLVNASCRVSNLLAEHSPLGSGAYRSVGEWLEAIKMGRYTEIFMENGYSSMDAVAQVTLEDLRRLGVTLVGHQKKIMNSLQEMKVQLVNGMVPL
Assay: KINOMEscan competition binding
Conditions: compound 10.0 µM
MEASUREMENT NAME: kinase still bound, per cent of control (%)

* C=CC(=O)Nc1ccc(CN(C(=O)Nc2c(Cl)c(OC)cc(OC)c2Cl)c2cc(Nc3ccc(N4CCN(C)CC4)cc3)ncn2)cc1 | 100
* O=C1NC(=O)/C(=C/c2ccc3nccc(-c4ccncc4)c3c2)S1 | 91
* COc1cc(C(=O)N2CCC(N3CCN(C)CC3)CC2)ccc1Nc1ncc2c(n1)N(C)c1ccccc1C(=O)N2C | 95
* NC(=O)Nc1cc(-c2cccc(F)c2)sc1C(=O)N[C@@H]1CCCNC1 | 4.8
* COCC(=O)NC/C=C/c1ccc2ncnc(Nc3ccc(Oc4ccc(C)nc4)c(C)c3)c2c1 | 100

====

Biological target: MINK1 (human)
Assay: KINOMEscan competition binding
Conditions: compound 10.0 µM
Each entry below lists one item and its recorded kinase still bound, per cent of control value.
MEASUREMENT NAME: kinase still bound, per cent of control (%)

* CNC(=O)c1cc(Oc2ccc(NC(=O)Nc3ccc(Cl)c(C(F)(F)F)c3)cc2)ccn1 | 46
* COc1cc2ncnc(-n3nc(-c4ccccn4)nc3N)c2cc1OC | 40
* O=C1NC(=O)/C(=C/c2ccc3nccc(-c4ccncc4)c3c2)S1 | 49
* C=CC(=O)Nc1ccc(CN(C(=O)Nc2c(Cl)c(OC)cc(OC)c2Cl)c2cc(Nc3ccc(N4CCN(C)CC4)cc3)ncn2)cc1 | 100
* C[C@@H](Oc1cc(-c2cnn(C3CCNCC3)c2)cnc1N)c1c(Cl)ccc(F)c1Cl | 18
* COc1cc2ncn(-c3cc(OCc4ccccc4C(F)(F)F)c(C(N)=O)s3)c2cc1OC | 63
* COc1cc(C(=O)N2CCC(N3CCN(C)CC3)CC2)ccc1Nc1ncc2c(n1)N(C)c1ccccc1C(=O)N2C | 77
* NC(=O)Nc1cc(-c2cccc(F)c2)sc1C(=O)N[C@@H]1CCCNC1 | 1.6
* CCN1CCN(C(=O)Cc2ccc(Nc3ncc(F)c(Nc4ccc(C(=O)Nc5ccccc5Cl)cc4)n3)cc2)CC1 | 57

====

Each entry below lists one item and its recorded kinase still bound, per cent of control value.
Target: NEK1 (human) (UniProt Q96PY6)
Sequence (Q96PY6 whole entry, looked up): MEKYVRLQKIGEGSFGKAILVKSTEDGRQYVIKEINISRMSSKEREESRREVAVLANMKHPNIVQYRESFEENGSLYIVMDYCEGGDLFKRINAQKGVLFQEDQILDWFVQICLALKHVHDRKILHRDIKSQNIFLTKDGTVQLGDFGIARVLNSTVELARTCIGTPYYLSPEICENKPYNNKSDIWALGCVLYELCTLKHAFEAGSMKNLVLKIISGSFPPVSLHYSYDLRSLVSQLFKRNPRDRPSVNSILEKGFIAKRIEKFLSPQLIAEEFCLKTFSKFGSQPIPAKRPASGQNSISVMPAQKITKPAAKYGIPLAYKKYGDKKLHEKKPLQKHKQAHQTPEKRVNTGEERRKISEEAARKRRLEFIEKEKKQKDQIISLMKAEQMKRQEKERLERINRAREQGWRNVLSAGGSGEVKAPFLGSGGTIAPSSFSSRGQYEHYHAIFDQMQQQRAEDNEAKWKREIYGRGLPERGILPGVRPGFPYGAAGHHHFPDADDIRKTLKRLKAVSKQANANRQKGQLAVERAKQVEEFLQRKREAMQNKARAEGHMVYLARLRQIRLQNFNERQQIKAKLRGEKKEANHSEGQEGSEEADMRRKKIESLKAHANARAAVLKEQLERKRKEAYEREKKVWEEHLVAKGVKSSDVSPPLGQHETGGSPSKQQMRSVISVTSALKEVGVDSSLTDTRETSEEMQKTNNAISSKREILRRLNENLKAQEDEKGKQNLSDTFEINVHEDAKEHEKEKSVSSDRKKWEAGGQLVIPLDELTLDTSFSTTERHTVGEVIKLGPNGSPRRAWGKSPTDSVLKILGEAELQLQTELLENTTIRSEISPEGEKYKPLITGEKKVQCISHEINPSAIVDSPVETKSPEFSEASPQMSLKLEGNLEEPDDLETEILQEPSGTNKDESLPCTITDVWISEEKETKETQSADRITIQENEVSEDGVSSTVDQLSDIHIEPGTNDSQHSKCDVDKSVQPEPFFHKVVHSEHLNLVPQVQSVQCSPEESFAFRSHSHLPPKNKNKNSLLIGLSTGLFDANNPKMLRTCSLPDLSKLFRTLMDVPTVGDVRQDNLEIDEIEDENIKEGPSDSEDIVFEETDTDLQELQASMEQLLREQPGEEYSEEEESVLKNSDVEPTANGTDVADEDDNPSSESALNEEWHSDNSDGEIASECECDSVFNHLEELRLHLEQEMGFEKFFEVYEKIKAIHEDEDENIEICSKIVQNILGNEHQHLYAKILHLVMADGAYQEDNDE
Assay: KINOMEscan competition binding
Conditions: compound 10.0 µM
MEASUREMENT NAME: kinase still bound, per cent of control (%)

* C=CC(=O)Nc1cc(-n2c(=O)ccc3cnc4ccc(-c5cn[nH]c5)cc4c32)ccc1C | 93
* N#CCNC(=O)c1ccc(-c2ccnc(Nc3ccc(N4CCOCC4)cc3)n2)cc1 | 42
* O=C1NC(=O)/C(=C/c2ccc3nccc(-c4ccncc4)c3c2)S1 | 47
* COc1cc2ncnc(-n3nc(-c4ccccn4)nc3N)c2cc1OC | 36
